Source listed as paper PMC10674446.

# Tested on: MCF7 breast cancer
# testProtocol: MTT cell viability assay, MCF7
# Format: cell-based, human
# measurementConditions: 72 h; SI = IC50 L6 / IC50 MCF-7
We begin with a simple list: items and their reported Selectivity Index (SI), MCF-7.

c1cc(CN2c3cccnc3Sc3cccnc32)nc(CN2c3cccnc3Sc3cccnc32)c1 [1c] = 5.5
c1ccc(CN2c3cccnc3Sc3cccnc32)c(CN2c3cccnc3Sc3cccnc32)c1 [1a] = 2.15

Query: Note down Selectivity Index (SI), MCF-7 recorded for c1ccc(CN2c3ccncc3Sc3ncccc32)c(CN2c3ccncc3Sc3ncccc32)c1 [4a]
Reply: 0.75

###

The following molecules are listed with their measured melting point values.

Some molecules with known melting point results, for comparison:
c1cc(CN2c3ccncc3Sc3ccncc32)nc(CN2c3ccncc3Sc3ccncc32)c1 = 245 to 247 °C
c1cc(CN2c3cnccc3Sc3cccnc32)nc(CN2c3cnccc3Sc3cccnc32)c1 = 266 to 268 °C
c1ccc(CN2c3ccncc3Sc3ccncc32)c(CN2c3ccncc3Sc3ccncc32)c1 = 280 to 282 °C
c1ccc(CN2c3cnccc3Sc3cccnc32)c(CN2c3cnccc3Sc3cccnc32)c1 = 260 to 261 °C
c1ccc(CN2c3ccncc3Sc3ncccc32)c(CN2c3ccncc3Sc3ncccc32)c1 = 302 to 303 °C
c1cc(CN2c3cccnc3Sc3cccnc32)nc(CN2c3cccnc3Sc3cccnc32)c1 = 245 to 247 °C

Please find the next molecule below.
Query: Return melting point (reported value) for this molecule: c1ccc(CN2c3cccnc3Sc3cccnc32)c(CN2c3cccnc3Sc3cccnc32)c1
Reply: 265 to 267 °C
